Target: T1, G288A
T1 construct: % monomer 95.3; also called MICA*008.mIgG2a G288A
T1 chain: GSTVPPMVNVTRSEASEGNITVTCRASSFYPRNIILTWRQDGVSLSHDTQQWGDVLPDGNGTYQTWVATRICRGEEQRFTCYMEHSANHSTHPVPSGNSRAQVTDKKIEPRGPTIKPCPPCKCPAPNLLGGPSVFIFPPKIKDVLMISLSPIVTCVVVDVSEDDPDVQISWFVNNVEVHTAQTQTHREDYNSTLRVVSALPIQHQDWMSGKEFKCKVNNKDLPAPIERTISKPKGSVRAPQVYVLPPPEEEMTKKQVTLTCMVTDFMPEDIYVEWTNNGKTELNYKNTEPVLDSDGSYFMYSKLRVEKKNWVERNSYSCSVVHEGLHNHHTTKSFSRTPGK
Assay: SPR, Fab over captured MICA*008.mIgG2a Ala variant; KD relative to wild type
READOUT: fold-decrease in affinity

- 6F8.7 Fab (Fab, V domains shown) VH: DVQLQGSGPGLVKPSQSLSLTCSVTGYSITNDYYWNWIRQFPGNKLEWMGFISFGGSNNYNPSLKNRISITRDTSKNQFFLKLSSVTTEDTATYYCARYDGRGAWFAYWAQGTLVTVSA VL: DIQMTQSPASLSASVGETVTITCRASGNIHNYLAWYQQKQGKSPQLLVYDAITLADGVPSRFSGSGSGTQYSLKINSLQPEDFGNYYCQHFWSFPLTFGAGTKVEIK: 1

# credit: patent US20200055939A1
